# Lookup of reported switch fluorescence ratio keyed by entry
- System: ATP;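 further: ATP exposure 15 min at 22 °C before imaging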
- assay-explanation: switch fluorescence ratio, 500 uM ATP over buffer (Cy3 cluster intensity, sum of 5 cycles each) (fold (ratio)); higher = stronger signal-on switching upon ATP binding; sequences stand for … in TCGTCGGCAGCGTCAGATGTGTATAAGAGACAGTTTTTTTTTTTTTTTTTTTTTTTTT…TC
- measurement-conditions: aptamer strand: ATP DNA aptamer (quencher-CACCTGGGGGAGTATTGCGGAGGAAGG + anchor), 100 nM annealed; ATP concentration: 500 uM

# residues, switch fluorescence ratio
rows = [
    ("GTAGTAAGGC", 2.23),
    ("TGGGAAATCT", 1.17),
    ("GGGGAAAAAG", 1.01),
    ("CCATGTGGG", 1.02),
    ("CCTAGTTAGT", 1.02),
    ("GGAGGCGGGC", 0.963),
    ("ATACGACGTG", 1),
    ("TGGGGTGGCG", 1.01),
    ("TTCTTTTTGC", 0.968),
    ("GGGACATTGT", 0.963),
    ("GAAGTCCTGT", 0.998),
    ("TCGTTCATGG", 0.979),
    ("TTTCGAATTC", 1.01),
    ("ATAAACCTTG", 1.16),
    ("GCTGGGGATT", 0.987),
    ("TTCAGAGTCA", 0.985),
    ("ATTAAGGGGC", 1.02),
    ("GGAAGGGTAT", 1),
    ("TGATATAGAG", 1),
    ("GATTGTTCTG", 0.98),
    ("AAAACGGAAC", 1.05),
    ("AGGGTTATTA", 0.979),
    ("CACATGCTCG", 1.05),
    ("ACGAACAGCG", 1.15),
    ("GCCAGCGTCC", 1.62),
    ("TAGGTGGTGC", 0.986),
    ("TGTAACCCAT", 1.02),
    ("GGTACGTATG", 0.986),
    ("ATGTTGTGGG", 1),
    ("AAAGATAATG", 1),
    ("TTAGGTGGAA", 0.976),
    ("AGTAGGTGGC", 1),
    ("TATTTACGCT", 1.05),
    ("ACTTACTTTA", 1.18),
    ("CTTATAATAG", 1.04),
    ("GTGGGGTAGT", 0.995),
    ("TAAACTCCA", 1.05),
    ("AGGGACTAGA", 1),
    ("AGAGAAAGGG", 1.02),
    ("CGATGTAGGT", 1.02),
    ("TAGGTGTATG", 1.01),
    ("TTAGCTATTA", 0.986),
    ("GTCATTTAAG", 0.991),
    ("TTCATTGTTA", 1.03),
    ("TAGTGAATTT", 1),
    ("CAAAGCTTGA", 1.01),
    ("TCAGAAAGGG", 1.02),
    ("GGACGGCGGG", 1),
    ("CGATTCTCAA", 1.02),
    ("CGTTTTTTTC", 1.01),
    ("TAGGCAGGGG", 1.08),
    ("GCTGAGGGTT", 0.955),
    ("ATATGTGGCG", 0.932),
    ("AACGATCTTT", 0.998),
    ("TGATGGGGTG", 0.99),
    ("ATATCAGGGG", 1.13),
    ("CGTAGGGCAG", 0.991),
    ("ATTTTTTAAA", 0.994),
    ("CTTTGCGTTT", 1.02),
    ("TCCATACAAG", 0.983),
    ("TTACTAAGCT", 1.03),
    ("ATATGGGCTG", 1.05),
    ("AGGGAGGTTG", 1.01),
    ("GGGTAGAGGG", 0.987),
    ("ATCGTGGGTT", 0.979),
    ("GCAGAGGGCA", 1.01),
    ("TAAGGTATGA", 1),
    ("TGAGAAAGGA", 0.99),
    ("CACGACATTG", 1.02),
    ("GGAGAAGCGT", 1.04),
    ("TAAATGTTAC", 1.06),
    ("TCGAGACAGG", 1),
    ("TCAGGGGCGA", 1.04),
    ("GGTTTGGGTG", 0.995),
    ("CATGAAGGGG", 1.02),
    ("TGTTTCAACT", 0.984),
    ("TCAGTAGATC", 1.02),
    ("GGACGTGGGA", 0.994),
    ("TAAATGCCGG", 1.14),
    ("GGCATGGTTT", 1.01),
    ("ATCCCCGGAG", 1.33),
    ("CTCGCGAATT", 1.55),
    ("ATGGACATAC", 1.22),
    ("TGTTATACGT", 1.02),
    ("CGGGTATGCT", 0.959),
    ("TGGATGGGGA", 0.98),
]
